# assayed target: human CB2R (SNAP-CB2) (Homo sapiens)
# Construct: truncated CB1R (CB1R91-472) and full-length CB2R (CB2R1–360); 5HT3A signal peptide (N, cleaved yes); expressed in transfected cells; membranes
# Sequence (P34972 whole entry, the tested form may be a part): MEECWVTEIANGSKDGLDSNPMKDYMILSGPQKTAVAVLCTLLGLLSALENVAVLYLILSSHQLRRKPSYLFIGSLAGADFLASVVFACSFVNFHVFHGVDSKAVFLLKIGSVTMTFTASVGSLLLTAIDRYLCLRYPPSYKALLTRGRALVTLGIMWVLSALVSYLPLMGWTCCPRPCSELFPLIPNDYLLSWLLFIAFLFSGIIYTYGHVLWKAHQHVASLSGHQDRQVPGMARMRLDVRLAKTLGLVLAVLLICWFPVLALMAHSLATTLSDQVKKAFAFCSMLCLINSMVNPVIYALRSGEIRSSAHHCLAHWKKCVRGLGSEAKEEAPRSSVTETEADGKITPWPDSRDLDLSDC
# experiment description: Fluorescent ligand kinetic association binding, TR-FRET
# test parameters: 25°C
endpoint: pKd of fluorescent tracer

| compound | endpoint | value reported |
| --- | --- | --- |
| CCCCCc1cc(O)c2c(c1)OC(C)(C)[C@@H]1CC=C(CNC(=O)CCCCCCNc3ccc([N+](=O)[O-])c4nonc34)C[C@@H]21 | pKd of fluorescent tracer | 6.71 |
| CCOC(=O)C(CC)(CCCSCCOCCOCCNc1ccc([N+](=O)[O-])c2nonc12)NC(=O)c1ccc(C2CC2)c(Cc2ccc(F)cc2)n1 (stereo not drawn) | pKd of fluorescent tracer | 7.20 |
| CCOC(=O)C(CC)(CCCSCCOCCOCCOCCNc1ccc([N+](=O)[O-])c2nonc12)NC(=O)c1ccc(C2CC2)c(Cc2ccc(F)cc2)n1 (stereo not drawn) | pKd of fluorescent tracer | 6.97 |
| CCOC(=O)C(CC)(CCCSCCOCCNc1ccc([N+](=O)[O-])c2nonc12)NC(=O)c1ccc(C2CC2)c(Cc2ccc(F)cc2)n1 (stereo not drawn) | pKd of fluorescent tracer | 7.15 |
| CCCCCc1cc(O)c2c(c1)OC(C)(C)[C@@H]1CC=C(CNC(=O)CCCCC[n+]3cc(S(=O)(=O)[O-])ccc3/C=C/c3cc4ccc(N(CC)CC)cc4oc3=O)C[C@@H]21 | pKd of fluorescent tracer | 6.97 |
| CCOC(=O)C(CC)(CCCSCCOCCOCCOCCOCCNc1ccc([N+](=O)[O-])c2nonc12)NC(=O)c1ccc(C2CC2)c(Cc2ccc(F)cc2)n1 (stereo not drawn) | pKd of fluorescent tracer | 6.93 |

###

Recorded pKd of fluorescent tracer by entry
# assayed target: human CB1R (SNAP-CB1R91–472) (Homo sapiens)
# Construct: SNAP-tagged human CB1R or CB2R (SNAP-CB1R91–472 and SNAP-CB2); 5HT3A signal peptide (N, cleaved yes); expressed in transfected cells; membranes
# Sequence (P21554 91-472): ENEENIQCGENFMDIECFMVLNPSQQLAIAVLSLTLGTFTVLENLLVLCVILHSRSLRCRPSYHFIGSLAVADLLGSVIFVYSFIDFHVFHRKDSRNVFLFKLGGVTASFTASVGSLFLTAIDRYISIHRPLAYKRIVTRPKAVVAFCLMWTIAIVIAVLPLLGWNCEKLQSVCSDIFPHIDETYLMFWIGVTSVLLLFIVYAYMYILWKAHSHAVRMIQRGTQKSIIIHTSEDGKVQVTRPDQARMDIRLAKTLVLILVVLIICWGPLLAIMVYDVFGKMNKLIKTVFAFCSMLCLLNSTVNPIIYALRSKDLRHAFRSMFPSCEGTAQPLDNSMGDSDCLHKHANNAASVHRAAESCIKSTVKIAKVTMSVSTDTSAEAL
# experiment description: Fluorescent ligand kinetic association binding, TR-FRET
# test parameters: 25°C

| compound | pKd of fluorescent tracer |
| --- | --- |
| CCCCCc1cc(O)c2c(c1)OC(C)(C)[C@@H]1CC=C(CNC(=O)CCCCC[n+]3cc(S(=O)(=O)[O-])ccc3/C=C/c3cc4ccc(N(CC)CC)cc4oc3=O)C[C@@H]21 | 6.31 |
| CCOC(=O)C(CC)(CCCSCCOCCNc1ccc([N+](=O)[O-])c2nonc12)NC(=O)c1ccc(C2CC2)c(Cc2ccc(F)cc2)n1 (centres unmarked) | 6.13 |
| CCOC(=O)C(CC)(CCCSCCOCCOCCOCCOCCNc1ccc([N+](=O)[O-])c2nonc12)NC(=O)c1ccc(C2CC2)c(Cc2ccc(F)cc2)n1 (centres unmarked) | 6.22 |
| CCOC(=O)C(CC)(CCCSCCOCCOCCNc1ccc([N+](=O)[O-])c2nonc12)NC(=O)c1ccc(C2CC2)c(Cc2ccc(F)cc2)n1 (centres unmarked) | 6.04 |
| CCOC(=O)C(CC)(CCCSCCOCCOCCOCCNc1ccc([N+](=O)[O-])c2nonc12)NC(=O)c1ccc(C2CC2)c(Cc2ccc(F)cc2)n1 (centres unmarked) | 6.02 |
